- test.system: Cytochrome P450 3A4 (Homo sapiens) (UniProt P08684)
- Sequence (P08684 whole entry, looked up): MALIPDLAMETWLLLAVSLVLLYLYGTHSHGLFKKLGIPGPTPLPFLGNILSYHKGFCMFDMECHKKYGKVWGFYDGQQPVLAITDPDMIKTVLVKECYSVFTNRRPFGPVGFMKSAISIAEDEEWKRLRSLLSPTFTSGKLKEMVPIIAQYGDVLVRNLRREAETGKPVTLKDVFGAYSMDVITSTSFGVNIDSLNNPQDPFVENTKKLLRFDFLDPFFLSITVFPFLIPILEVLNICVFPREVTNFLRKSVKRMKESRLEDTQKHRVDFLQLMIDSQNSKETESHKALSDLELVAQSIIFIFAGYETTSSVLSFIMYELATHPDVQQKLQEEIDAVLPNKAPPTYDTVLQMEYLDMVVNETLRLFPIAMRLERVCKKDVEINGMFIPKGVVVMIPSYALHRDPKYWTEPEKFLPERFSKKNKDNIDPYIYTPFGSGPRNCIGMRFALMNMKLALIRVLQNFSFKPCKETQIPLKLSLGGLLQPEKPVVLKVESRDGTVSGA
- assay.name: Cytochrome panel assay with activity outcomes
- conditions: recombinant CYP, pro-luciferin dealkylation, luminescence, p450-cyp3a4; series mostly up to 57.1 µM
Hit rate of the full screen: of about 16,000 compounds, about 5,100 (32%) were called active. About 25% were inconclusive and are not listed. Calls follow the shape of the dose curve; as a rule, active = well fitted curve in the direction sought with a large enough effect; inconclusive = small, poorly fitted or top-dose-only effect, or effect the other way; inactive = no such curve, though single readings can be large or run the other way. The list shows a part of the results.
Outcomes: active, inactive

molecule	label.class
O=C(O)/C=C\c1ccc(O)c(O)c1	inactive
O=C(O)c1cc2cc(OCc3ccccc3)ccc2[nH]1	inactive
COc1cccc(C(=O)N(Cc2ccccc2)Cc2cc3cc4c(cc3[nH]c2=O)OCCO4)c1	active
COCC(=O)Oc1c(S(=O)(=O)c2ccc(C)cc2)c(C)nn1-c1ccccc1	inactive
COc1ccccc1NC(=O)Cn1nnc(-c2ccccc2NC(=O)c2cc3ccccc3oc2=O)n1	active
COc1cccc(C(=O)n2c(SC)nc3cc4c(cc32)OCCO4)c1	inactive
Cc1ccc(C(=O)N2CCN(C3c4cccc5cccc(c45)C3NS(=O)(=O)c3ccccc3)CC2)cc1 (configuration not stated)	active
O=C(/C=C\c1ccc(O)c(O)c1)O[C@@H](Cc1ccc(O)c(O)c1)C(=O)O	inactive
CC(C)(C)NC[C@H](O)COc1cccc2[nH]c(=O)[nH]c12	inactive
COc1ccccc1C(=O)Nc1cc2c(ccc3ccccc32)oc1=O	inactive
O=C(/C=C\c1ccc(O)c(O)c1)OCCc1ccccc1	active
CC(C)COCC1CC2(CC(C)(c3csc(N)n3)OC2=O)C(=O)O1 (configuration not stated)	active

====

- test.system: Cytochrome P450 3A4 (Homo sapiens)
- assay.name: Cytochrome panel assay with activity outcomes
- conditions: recombinant CYP, pro-luciferin dealkylation, luminescence, p450-cyp3a4; series mostly up to 57.1 µM
Hit rate of the full screen: of about 16,000 compounds, about 5,100 (32%) were called active. Roughly 25% stayed inconclusive and do not appear here. Calls follow the shape of the dose curve; as a rule, active = well fitted curve in the direction sought with a large enough effect; inconclusive = small, poorly fitted or top-dose-only effect, or effect the other way; inactive = no such curve, though single readings can be large or run the other way. This is one part of the list.
Possible outcomes: true = active, false = inactive

molecule	label.class
CCCCN1C(=O)CC(Sc2ccccc2C(=O)O)C1=O (stereo not given)	false
Cc1ccc(C(=O)C(OC(=O)CN2C(=O)c3ccccc3C2=O)c2ccccc2)cc1 (stereo not given)	true
CC(NC(=O)CSc1nc(=O)cc(N)n1CCc1ccccc1)c1ccccc1 (stereo not given)	true
COCCN1CN=C(Nc2nc3ccccc3o2)NC1	false
Cn1cc(-c2nc3cnc(N4CCNCC4)nc3n(C)c2=O)c2ccccc21	true
C/C(=N\N1CCN(C2c3ccccc3-c3ccccc32)CC1)c1cccnc1	true
O=C(c1ccccc1)c1nn(-c2ccccc2)c(=O)cc1C(F)(F)F	false
COc1ccc(/C=C/C(=O)Oc2cccc(/C=N/NC(=O)COc3c(C)cccc3C)c2)cc1	false
CCOc1cc2[nH]c(=O)n(CCC(=O)NCc3ccc(OC)cc3)c(=O)c2cc1OCC	true
C/C(CC(=O)NCCCN1CCOCC1)=N\NC(=O)COc1ccc(Cl)cc1	true
C(=N\N1CCN(C2c3ccccc3-c3ccccc32)CC1)/c1cccnc1	true
CC(=O)[C@H]1CC[C@@H]2[C@H]3CC=C4C[C@@H](O)CC[C@]4(C)[C@H]3CC[C@]12C	false
O=C(CSC1CC(=O)N(CC(c2ccccc2)c2ccccc2)C1=O)Nc1ccc(Cl)cc1 (stereo not given)	true
Oc1ccccc1-c1cc(-c2ccccc2)no1	false
O=C(N/N=C\c1cn(-c2ccccc2)nc1-c1ccccc1)c1ccc2c(c1)OCO2	true
O=C(N/N=C/c1ccc(Cl)cc1Cl)Nc1ccccc1	false
COc1ccccc1NC(=O)c1nn(-c2cccc(C(F)(F)F)c2)ccc1=O	true
C/C(=N\N1CCN(C2c3ccccc3-c3ccccc32)CC1)c1ccncc1	true
COc1ccccc1NC(=O)c1nc[nH]c1C(=O)Nc1ccccc1OC	false
O=C(N/N=C/c1ccccn1)c1ccc(Br)o1	false

====

- test.system: Cytochrome P450 3A4 (Homo sapiens)
- assay.name: Cytochrome panel assay with activity outcomes
- conditions: recombinant CYP, pro-luciferin dealkylation, luminescence, p450-cyp3a4; series mostly up to 57.1 µM
The campaign covered roughly 16,000 compounds. About 5,100 (32%) were called active. Not shown: some 25% with an inconclusive outcome. The call rests on the fitted dose curve; in most records, active means well fitted curve in the direction sought with a large enough effect; inconclusive means small, poorly fitted or top-dose-only effect, or effect the other way; inactive means no such curve, though single readings can be large or run the other way. The list shows a part of the results.
Outcome codes: YES (active), NO (inactive)

molecule	label.class
COC(=O)[C@@]1(Cc2ccc(OC)cc2)[C@H]2c3cc(C(=O)N(C)C)[nH]c3C[C@H]2CN1C(=O)c1ccccc1	YES
COc1ccc(CNc2nc(-c3ccccc3CN(C)C)nc3ccccc23)c(OC)c1	YES
CCc1cc2c(=O)c(-c3nc4ccccc4n3C)c(C)oc2c(CN(CC)CC)c1O	NO
CC(C)(C)NC[C@H](O)COc1cccc2c1CCCC2=O	NO
CC1CCc2cc(F)ccc2N1C(=O)CSc1nnc2c(n1)[nH]c1ccc(F)cc12 (stereo not drawn)	YES
Clc1ccc2c(c1)C=Nc1c(NCc3ccccc3)ncnc1O2	NO
COc1ccccc1N/C(=N/S(=O)(=O)c1ccc(C)cc1)c1ccc(Cl)cc1	YES
Cc1nn(-c2ccccc2)c(Cl)c1C(=O)Nc1c(C)n(C)n(-c2ccccc2)c1=O	NO
CC(=O)Nc1c2c3c(cccc3n(C)c1=O)C(=O)c1ccccc1-2	YES
Cn1cccc1/C=N/NC(=O)c1sc2ccccc2c1Cl	YES
Cc1cccc(C)c1NC(=O)C(c1ccc(Cl)cc1Cl)N1CCCCC1 (stereo not drawn)	YES
COC(=O)c1c(-n2c(C)cc(C=O)c2C)sc2c1CCCC2	YES
CCCCN(C)CCCNC(=O)c1ccc(N2CCCC2=O)cc1	NO

====

- test.system: Cytochrome P450 3A4 (Homo sapiens) (UniProt P08684)
- assay.name: Cytochrome panel assay with activity outcomes
- conditions: recombinant CYP, pro-luciferin dealkylation, luminescence, p450-cyp3a4; series mostly up to 57.1 µM
Among all 16,000 compounds or so, about 5,100 (32%) were called active. About 25% were inconclusive and are not listed. Calls follow the shape of the dose curve; as a rule, active = well fitted curve in the direction sought with a large enough effect; inconclusive = small, poorly fitted or top-dose-only effect, or effect the other way; inactive = no such curve, though single readings can be large or run the other way. This is one part of the list.
Outcome codes: active, inactive

compound	label.class
Cc1cccc(-c2nsc(SCC(=O)Nc3nccs3)n2)c1	active
O=S(=O)(c1ccccc1)N1CCC2(CCCN(c3ncccn3)C2)CC1	active
COc1ccc(C(=O)COC(=O)c2ccc(NC(=O)c3ccccc3)cc2)cc1	inactive
O=C(CSc1nnc(SCc2cccc3ccccc23)s1)c1ccc2c(c1)OCO2	active
COC(=O)c1cnn(C(=O)c2ccccc2Br)c1N	inactive
CC(C)NNC(=O)c1ccncc1	inactive
COc1ccccc1COC(=O)Nc1c(C)nn(C)c1Cl	active
COC(=O)c1cc(OC)c(OC)cc1NC(=S)N1CCCCC1	active
CCOC(=O)Cc1cc(=O)n2[nH]c(C)c(-c3ccccc3)c2n1	inactive
CC1(C)CC(=O)C2=C(C1)N(c1ccc(F)cc1)C(N)=C(C#N)C2c1cccs1 (stereo not drawn)	active
CC(C)(C)N(NC(=O)Nc1ccc(Cl)c(Cl)c1)C(=O)c1ccccc1	active
CS(=O)(=O)N1CCC2(CCCN(c3ncccn3)C2)CC1	inactive
Cc1ccc(-n2nc3ccc(NC(=O)c4ccc5c(c4)OCO5)cc3n2)cc1	active
CCC(=O)Nc1c2c(nc3c1CCC3)CCCC2	inactive
CS(=O)(=O)N1CCC2(CC1)CN(c1cccc(-c3ccccc3)c1)C2	inactive
COC(=O)N1CCC2(CCN(Cc3ccccc3OC)CC2)CC1	inactive
CC(Oc1ccc(Cl)cc1)C(=O)/C=C/N(C)C (stereo not drawn)	inactive
CCOc1ccc(NC(=O)c2nnn(CC(=O)Nc3ccccc3OC)c2N)cc1	inactive
O=c1[nH]c(SCc2c(Cl)c(Cl)c(Cl)c(Cl)c2Cl)nc(=S)[nH]1	active
Cc1ccc(C)c(NC(=O)Cn2nnc(C(=O)NCc3cccs3)c2N)c1	inactive
COC(=O)c1ccc(C(=O)OC)c(NC(=S)N2CCN(c3ccccc3)CC2)c1	active
O=S(=O)(c1ccccc1)N1CCC2(CCCN(c3ccccc3)C2)CC1	active
O=c1oc2cc(N=Cc3ccc4c(c3)OCO4)ccc2c2ccccc12	active
O=S(=O)(c1ccccc1)N1CCC2(CCCN(c3cccc(-c4ccccc4)c3)C2)CC1	active
CN(Cc1cnc2nc(N)nc(N)c2n1)c1ccc(C(=O)N[C@@H](CCC(=O)O)C(=O)O)cc1	inactive
COC(=O)c1cnn(C(=O)c2cc(OC)ccc2Br)c1N	active
COC(=O)c1ccc(-n2cncn2)c(F)c1	active
CCc1c(O)nc2sc3ccccc3n2c1=O	inactive

====

- test.system: Cytochrome P450 3A4 (Homo sapiens) (UniProt P08684)
- assay.name: Cytochrome panel assay with activity outcomes
- conditions: recombinant CYP, pro-luciferin dealkylation, luminescence, p450-cyp3a4; series mostly up to 57.1 µM
About 5,100 (32%) of roughly 16,000 compounds were called active. Another 25% or so got no clear call; they are omitted. Calls come from the whole dose curve; as a rule, active = well fitted curve in the direction sought with a large enough effect; inconclusive = small, poorly fitted or top-dose-only effect, or effect the other way; inactive = no such curve, though single readings can be large or run the other way. The list shows a part of the results.
Outcome codes: T (active), F (inactive)

compound	test.system	label.class
CC(C)(C)c1ccc(CN(Cc2ccco2)Cc2nnnn2C2CCCC2)cc1	Cytochrome P450 3A4 (Homo sapiens) (UniProt P08684)	T
Cc1cc(C)c2c(-n3cccc3)n[nH]c2n1	Cytochrome P450 3A4 (Homo sapiens) (UniProt P08684)	F
C/C(=N/OC(=O)c1cccc(Cl)c1)c1nccs1	Cytochrome P450 3A4 (Homo sapiens) (UniProt P08684)	F
O=C(Nc1nc2ccc(F)cc2s1)C1CCCO1 (stereo not given)	Cytochrome P450 3A4 (Homo sapiens) (UniProt P08684)	F
Cc1ccc(-c2ccc(/C=N\NC(=O)c3cc4c(ccc5ccccc54)o3)o2)cc1[N+](=O)[O-]	Cytochrome P450 3A4 (Homo sapiens) (UniProt P08684)	F
